- tgt: T1, mouse IL-2Rβ (mouse) (UniProt P16297)
- T1 sequence (looked up): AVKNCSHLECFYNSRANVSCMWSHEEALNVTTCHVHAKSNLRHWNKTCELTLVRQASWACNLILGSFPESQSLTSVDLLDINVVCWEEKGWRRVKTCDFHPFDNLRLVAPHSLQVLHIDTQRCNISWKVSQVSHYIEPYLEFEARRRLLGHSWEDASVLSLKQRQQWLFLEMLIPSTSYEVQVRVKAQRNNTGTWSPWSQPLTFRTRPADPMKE
- experimental protocol: P.E. binding ELISA on coated protein
Each entry below carries its recorded P.E. binding ELISA OD.
measure name: P.E. binding ELISA OD (OD450 nm)

[[record]]
binder = "FJ1427 P035MP03C04 (VHH) VHH: EVQLVESGGGLVQAGASLELSCAASGGTFSSYAMGWFRQAPGKEREFVAATTRGGGRTMYAVSTEGRFSCSRDNAKNTVNLLIKNLKPEDTAVYYCAARTSYYDGTYYPASSDFDIWGQGTQVTVSS"
value = 0.048

[[record]]
binder = "FJ1427_P035MP03H09 (VHH) VHH: QVQLVESGGGLVQAGGSLRLSCAASGSIFSINAMGWFRQAPGKEREFVAAISRSGGSTAYVDSVKGRFTISRDNSKNMVHLQMNSLKSEDEAVYYCAATAAVGWTSRWITTDFDSWGQGTQVTVSS"
value = 0.052

[[record]]
binder = "FJ1427 P035MP03C08 (VHH) VHH: EVQLVESGGGLVQAGGSLRLACALSGDVFVRYTMAWFRQAPGKEREFVASVTDSGRTTDYVASVQGRFTVSRDNNKNTVYLQMNSLKPEDTAVYYCAANTDYFQIRSLDRNTWGQGTQVTVSS"
value = 0.054

[[record]]
binder = "FJ1427 P035MP03A03 (VHH) VHH: EVQLVESGGGSVQTGGSLRLSCVVSGSHFISDVMGWYRQVPGKQRELVADMADGGSVKYGDSVKGRFTILRDSVKNTVTLQMSSLNPEDTGVYYCKAGLWITGRHFDYWGQGTQVTVTS"
value = 0.05

[[record]]
binder = "FJ1427_P035MP02H11 (VHH) VHH: EVQLVESGGGLVQAGGSLRLSCAASGRTFSTTEMGWFRQAPGKEREFVAAITWTGRGTMYAESVEGRFTISRENAKNMVYLQMNSLKPEDTAIYYCAAARRGRAAVRSEGGYDFWGQGTQVAVSS"
value = 0.049

[[record]]
binder = "FJ1427_P035MP03A09 (VHH) VHH: QVQLVESGGGLVQAGGSLRLACAASGRTFSTLTMGWFRQAPGKEREFVAGISPSGGYAWHADSVKGRFTIDRDNAKNTVYLQTRSLRPEDTAVYYCAADHPPYGAVASRSEYEYDDWGPGTRVTVSS"
value = 0.049

[[record]]
binder = "FJ1427_P035MP03B02 (VHH) VHH: EVQLVESGGGLVQVGDSLRLSCAASGRTVGSANMGWFRQAPGKEREFVAVITWSTGSTVYADSVKGRFTISRDNAKNTVYLDMSSLKPDDTAVYYCAADVYPYSGNLNIMDYWGKGTLVTVSS"
value = 0.068

[[record]]
binder = "FJ1427 P035MP03B01 (VHH) VHH: QVQLVESGGGLVQAGGSLRLSCAASGFTFSNYAMSWVRQAPGKGLEWVSSITGFGRGTDYADSVKGRFTISRDNAKNTLYLQMNSLKPEDTAVYYCARYSSSTYYPPTPARGTDYRGQGTQVTVSS"
value = 0.05

